# Ki measurements, system: AICARFT (Homo sapiens, UniProt P31939)
# Sequence (P31939 whole entry): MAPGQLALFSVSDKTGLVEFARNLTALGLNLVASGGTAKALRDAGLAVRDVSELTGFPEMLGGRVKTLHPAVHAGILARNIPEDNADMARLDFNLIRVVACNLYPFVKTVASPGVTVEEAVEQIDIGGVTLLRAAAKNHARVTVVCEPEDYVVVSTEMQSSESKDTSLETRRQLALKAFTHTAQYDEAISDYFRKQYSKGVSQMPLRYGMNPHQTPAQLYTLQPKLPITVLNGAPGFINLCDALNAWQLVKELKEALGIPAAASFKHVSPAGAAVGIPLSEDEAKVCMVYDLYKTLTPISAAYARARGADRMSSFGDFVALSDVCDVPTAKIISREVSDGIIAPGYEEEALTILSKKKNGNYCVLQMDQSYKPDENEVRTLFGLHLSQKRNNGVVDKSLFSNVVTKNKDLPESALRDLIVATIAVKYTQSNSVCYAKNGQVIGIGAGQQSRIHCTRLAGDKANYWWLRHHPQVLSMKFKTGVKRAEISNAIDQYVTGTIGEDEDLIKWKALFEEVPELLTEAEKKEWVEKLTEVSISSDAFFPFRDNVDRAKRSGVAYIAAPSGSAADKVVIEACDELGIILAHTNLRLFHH
Please reply with the bare figure in µM and do not write the unit itself.

{"Compound": "O=C(O)c1ccc(CCCCCSc2nc(-c3ccc(Oc4ccccc4)cc3)cc(=O)[nH]2)s1 [Compound 6]", "Ki (µM)": 0.43}

--- query ---
compound N#Cc1c(-c2ccc(-c3cccs3)s2)nc(SCc2ccc(NS(=O)(=O)c3ccc(F)cc3)cc2Cl)[nH]c1=O [Compound 21] , Ki observed: 0.029

* * *

Below are Ki values measured for AICARFT (Homo sapiens).
Output spec: scalar in µM, unitless text.

Example entries begin here.
{"Smi": "COc1cc(NS(=O)(=O)c2ccc(F)cc2)ccc1CSc1nc(-c2ccc(-c3cccs3)s2)c(C#N)c(=O)[nH]1", "Target of assay": "AICARFT (Homo sapiens)", "Readout number": 0.77}
{"Smi": "O=C(O)c1ccc(CCCCCSc2nc(-c3ccc(N4CCOCC4)cc3)cc(=O)[nH]2)s1", "Target of assay": "AICARFT (Homo sapiens)", "Readout number": 0.22}
{"Smi": "O=C(O)c1ccc(CCCSc2nc(-c3ccccc3)cc(=O)[nH]2)s1", "Target of assay": "AICARFT (Homo sapiens)", "Readout number": 7.2}

Shift focus to the following entry.
Form: item Cc1ccc2cc(NS(=O)(=O)c3ccc(CSc4nc(-c5ccc(-c6cccs6)s5)c(C#N)c(=O)[nH]4)cc3)ccc2n1 ; test system AICARFT (Homo sapiens); Ki: 0.43

* * *

As a worked illustration, we turn to pKi data collected for AICARFT (Homo sapiens).
Remember, pKi is on a log scale: it is -log10 of the molar concentration.

Worked set:
{"Compound": "CN(c1ccc(CSc2nc(-c3ccc(-c4cccs4)s3)c(C#N)c(=O)[nH]2)cc1)S(=O)(=O)c1ccc(F)cc1 [Compound 20]", "pKi": 5.74}
{"Compound": "Cc1cc(CSc2nc(-c3ccc(-c4cccs4)s3)c(C#N)c(=O)[nH]2)ccc1NS(=O)(=O)c1ccc(F)cc1 [Compound 22]", "pKi": 6.00}
{"Compound": "COc1cc(CSc2nc(-c3ccc(-c4cccs4)s3)c(C#N)c(=O)[nH]2)ccc1NS(=O)(=O)c1ccc(F)cc1 [Compound 24]", "pKi": 5.89}

Tested on AICARFT (Homo sapiens), the item O=C(O)CCC(NC(=O)c1ccc(CCSc2nc(-c3ccccc3)cc(=O)[nH]2)s1)C(=O)O (centres unmarked) [Compound 12] showed pKi equal to 5.05

The compound O=C(O)c1ccc(CCCCCSc2nc(-c3ccc(-c4cccs4)s3)cc(=O)[nH]2)s1 [Compound 3] , tested on AICARFT (Homo sapiens), showed pKi of 6.55

Data provenance is patent US6525050B1.
